Test system: MDA-MB-435
Assay: NCI 60 cell panel SRB screen
Format: cell-based
Conditions: Homo sapiens, MDA-MB-435, read-out: percent cell growth promotion
OUTCOME MEASURE: activity at 10 µM

Use the examples below as a reference point.
COMPOUND	activity at 10 µM
O=C(Nc1ccc(Cl)cc1)Nc1ccc(Nc2nncc3ccccc23)cc1	13.7%
CCOC(=O)N1CCN(c2nncc3ccccc23)CC1	105%
O=C(Nc1ccccc1)Nc1ccc(Oc2nnc(Cl)c3ccccc23)cc1 [Compound 13a]	48.6%
Cc1nnc(Nc2ccc(NC(=O)c3ccc(Cl)cc3)cc2)c2ccccc12	102%

In: What measured activity at 10 µM goes with Cc1nnc(N2CCN(c3ccccn3)CC2)c2ccccc12 ?
Out: 99.6%

In: Consider the compound shown here: Cc1nnc(Nc2ccc(NC(=O)Nc3ccc(Cl)cc3)cc2)c2ccccc12 What is its recorded activity at 10 µM?
Out: -40%

In: Bench note: what activity at 10 µM did Clc1ccc(Nc2nnc(CNc3ccccc3)c3ccccc23)cc1 [Compound 16a] show?
Out: 4.17%

In: Item Cc1nnc(Oc2ccc(NC(=O)Nc3ccc(Cl)cc3)cc2)c2ccccc12 has what recorded activity at 10 µM?
Out: 79.2%

In: // query activity at 10 µM value for entry c1ccc(N2CCN(c3nncc4ccccc34)CC2)nc1
Out: 104%

In: Which measured activity at 10 µM value corresponds to O=C(Nc1ccc(Cl)cc1)Nc1ccc(Oc2nnc(Cl)c3ccccc23)cc1 [Compound 13b] ?
Out: 93.9%

In: For the compound shown here, Cc1nnc(N2CCN(c3ccccc3)CC2)c2ccccc12 , give the reported activity at 10 µM.
Out: 99.5%

In: What does the data say about its activity at 10 µM? Entry: CCOC(=O)N1CCN(c2nnc(C)c3ccccc23)CC1
Out: 97.4%

In: May I ask what activity at 10 µM has been recorded for Clc1ccc(Nc2nnc(COc3ccccc3)c3ccccc23)cc1 [Compound 17a] ?
Out: -3.33%

----------
The reader will find GI50 measurements below, all made with SK-MEL-2.
Include the unit after the number when you answer.

COMPOUND	GI50
Clc1ccc(Nc2nnc(CNc3ccccc3)c3ccccc23)cc1 [Compound 16a]	2.16 µM
O=C(Nc1ccccc1)Nc1ccc(Oc2nnc(Cl)c3ccccc23)cc1 [Compound 13a]	3.9 µM
O=C(Nc1ccc(Cl)cc1)Nc1ccc(Oc2nncc3ccccc23)cc1 [Compound 7b]	1.57 µM
Clc1ccc(Nc2nnc(COc3ccccc3)c3ccccc23)cc1 [Compound 17a]	0.97 µM
Cc1nnc(Nc2ccc(NC(=O)Nc3ccc(Cl)cc3)cc2)c2ccccc12 [Compound 6e]	2.22 µM
O=C(Nc1ccc(Cl)cc1)Nc1ccc(Nc2nncc3ccccc23)cc1 [Compound 6b]	2.7 µM

Let us move to another entry and its GI50.
In: Name the reported GI50 value associated with the compound COc1cccc(NCc2nnc(Nc3ccc(Cl)cc3)c3ccccc23)c1 [Compound 16d]
Out: 0.7 µM

----------
Listed next: entries and their corresponding pIC50.
Tested on: HCT-116
Test: In vitro cytotoxic activity, SRB assay
Type: cell-based
Conditions: Homo sapiens; HCT-116, 48h
For clarity, pIC50 is expressed as the negative log10 of concentration in mol/L.

In: Reported pIC50 for COc1cccc2c1C(=O)c1c(O)c3c(c(O)c1C2=O)C[C@@](O)(C(=O)CO)C[C@@H]3O[C@H]1C[C@H](N)[C@H](O)[C@H](C)O1 [Dox, doxorubicin, reference compound] : what is it?
Out: 6.21
